Molecular target: NLRP3 (Homo sapiens)
Construct: Seed THP-1 cells (5.56*10^5 cells/mL) containing 1.0 ug/mL LPS; endogenous in cells; host or cells: THP-1 cells
Sequence (Q96P20 whole entry): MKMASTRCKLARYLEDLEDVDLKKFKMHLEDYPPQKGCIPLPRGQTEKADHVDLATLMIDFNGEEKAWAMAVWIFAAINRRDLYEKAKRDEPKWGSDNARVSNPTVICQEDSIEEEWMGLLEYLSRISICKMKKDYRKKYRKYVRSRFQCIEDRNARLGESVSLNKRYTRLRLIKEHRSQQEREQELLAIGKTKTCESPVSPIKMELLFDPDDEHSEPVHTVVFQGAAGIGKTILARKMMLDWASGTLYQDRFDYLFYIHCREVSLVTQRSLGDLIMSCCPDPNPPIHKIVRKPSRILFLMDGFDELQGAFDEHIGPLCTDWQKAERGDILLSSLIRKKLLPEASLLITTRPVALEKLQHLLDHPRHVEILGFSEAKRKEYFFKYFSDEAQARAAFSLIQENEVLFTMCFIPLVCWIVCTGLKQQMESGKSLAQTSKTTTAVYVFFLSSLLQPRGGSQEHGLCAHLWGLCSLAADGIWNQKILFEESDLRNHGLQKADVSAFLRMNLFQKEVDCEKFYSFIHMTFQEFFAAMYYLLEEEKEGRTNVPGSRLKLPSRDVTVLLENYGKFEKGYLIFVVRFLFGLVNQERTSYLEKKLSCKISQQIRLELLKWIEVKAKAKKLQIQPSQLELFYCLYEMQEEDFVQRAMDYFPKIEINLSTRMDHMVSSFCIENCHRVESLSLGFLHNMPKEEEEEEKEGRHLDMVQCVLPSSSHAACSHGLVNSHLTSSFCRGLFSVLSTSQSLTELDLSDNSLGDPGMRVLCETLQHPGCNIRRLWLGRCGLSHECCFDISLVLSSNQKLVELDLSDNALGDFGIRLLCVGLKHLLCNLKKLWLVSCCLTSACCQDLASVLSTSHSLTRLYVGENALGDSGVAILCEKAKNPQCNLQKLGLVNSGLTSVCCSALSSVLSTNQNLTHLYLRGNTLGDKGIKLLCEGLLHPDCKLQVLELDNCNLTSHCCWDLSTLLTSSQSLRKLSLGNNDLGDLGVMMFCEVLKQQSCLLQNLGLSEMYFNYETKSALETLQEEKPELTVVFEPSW
Experiment: THP-1 cell assay (LPS priming, nigericin), IL1β release by HTRF; called pyroptosis assay, THP IC50
Type: cell-based
Conditions: NLRP3 inhibitory activity; THP-1 cells, 1.0 ug/mL LPS, compound 3 hrs, nigericin 5 uM 1 hr, IL1β in supernatant
pIC50: −log10 of the molar value.

{"columns": ["Compound", "pIC50"],
 "data": [
  ["Cc1cc2c(c(NC(=O)NS(=O)(=O)c3ccn(C4CC4)n3)c1-c1ccc3ncnn3c1)CCC2 [Example 97]", "≥ 7.52"],
  ["CC(C)(O)c1csc(S(=O)(=O)NC(=O)Nc2c(-c3ccnc4c3ccn4C3CCOCC3)ccc3c2CCC3)c1 [Example 56]", "6.52 to 7.52"],
  ["CC(C)n1ccc(S(=O)(=O)NC(=O)Nc2c(-c3ccnc4c3ccn4C)ccc3c2CCC3)n1 [Example 50]", "6.00 to 6.52"],
  ["O=C(Nc1c(-c2cnc3ccnn3c2)ccc2c1CCC2)NS(=O)(=O)c1cnn(CC2CC2)c1 [Example 22]", "< 5.70"],
  ["Cc1cc2c(c(NC(=O)NS(=O)(=O)c3ccn(C4CC4)n3)c1-c1ccn3nccc3c1)OCC2 [Example 83]", "6.52 to 7.52"],
  ["Cc1cc2c(c(NC(=O)NS(=O)(=O)c3ccn(C(C)C4CC4)n3)c1-c1ccn3nccc3c1)CCC2 (stereo not shown) [Example 82]", "6.00 to 6.52"],
  ["CC(C)(O)c1csc(S(=O)(=O)NC(=O)Nc2c(-c3cnc4ccnn4c3)ccc3c2CCC3)c1 [Example 64]", "5.70 to 6.00"]
]}
